Tested on: differentiated monocytic cell line THP-1
Assay: In vitro phagocytic assay: ingestion of chilled or room temperature human platelets by THP-1 cells
Assay type: cell-based
Conditions: chilled platelets; phagocytes incubated in monosaccharide solutions at various concentrations
Measured metric: inhibitory effect on chilled platelet phagocytosis (in words)

* CO[C@H]1O[C@H](CO)[C@@H](O)[C@H](O)[C@@H]1O [Methyl-α-D-mannopyranoside] | no inhibitory effect
* CO[C@@H]1O[C@H](CO)[C@@H](O)[C@H](O)[C@@H]1O [Methyl-β-D-mannopyranoside] | no inhibitory effect
* O=C[C@@H](O)[C@@H](O)[C@H](O)[C@H](O)CO [D-(+)-mannose] | no inhibitory effect
